Source: PubChem BioAssay (NCI)

Measured TGI, listed per entry.
Test system: SF-295 CNS
Test: NCI tumour cell line growth inhibition, 48 h

Example compounds with recorded TGI:
CCn1c(-c2nonc2N)nc2c(C#CC(C)(C)O)nc(OCCNC)cc21 : > 22.6 µM
COc1cc(S(=O)(=O)Nc2ccc(C(=O)/C=C/c3ccc(O)cc3)cc2)ccc1F : > 100 µM
CC(C)N1CC2CC(CN(C(=O)c3ccccc3)C2)C1 : > 100 µM

Retrieve TGI on SF-295 CNS; query COC(=O)c1ccccc1NC(=O)C(=O)NNC(=O)c1ccncc1 > 100 µM

Enter measured TGI, system SF-295 CNS, for the compound shown: COc1ccc(Nc2nc(N)c(C(=O)c3c[nH]c4ccccc34)s2)cc1 > 100 µM
